Values were extracted from patent US20040121946A9.

target.or.system: DRB1*0101 (DR1) (Homo sapiens, UniProt P01903+P01911, A100R/D57E/F55L/F60I/F76Y/I96L/L162R/M171V/P40L/Q125E/R42F/V115G/Y59C)
method.summary: HLA class II peptide binding assay, purified HLA
condition.description: Table XIX, DR supermotif peptides; unit not given
reported.endpoint: DR1 binding data

>>> value("CSCC[C@H](NC(=O)[C@@H](NC(=O)[C@H](Cc1ccc(O)cc1)NC(=O)[C@H](C)NC(=O)[C@H](CCC(=O)O)NC(=O)[C@@H](N)CC(=O)O)C(C)C)C(=O)N[C@@H](C)C(=O)NCC(=O)N[C@H](C(=O)NCC(=O)N[C@@H](CO)C(=O)N1CCC[C@H]1C(=O)N[C@@H](Cc1ccc(O)cc1)C(=O)N[C@H](C(=O)N[C@@H](CO)C(=O)O)C(C)C)C(C)C")
0.0500
>>> value("CC[C@H](C)[C@H](NC(=O)[C@H](CCCNC(=N)N)NC(=O)CNC(=O)[C@H](CCCNC(=N)N)NC(=O)[C@@H](NC(=O)[C@@H](NC(=O)[C@H](CCC(N)=O)NC(=O)[C@H](CC(C)C)NC(=O)[C@H](CC(N)=O)NC(=O)[C@H](CCC(N)=O)NC(=O)[C@H](Cc1ccccc1)NC(=O)[C@@H](NC(=O)[C@H](CO)NC(=O)[C@@H](N)CC(C)C)C(C)C)C(C)C)[C@@H](C)CC)C(=O)N[C@@H](CC(C)C)C(=O)O")
0.1800
>>> value("CC[C@H](C)[C@H](NC(=O)CNC(=O)[C@H](CC(C)C)NC(=O)[C@H](CC(C)C)NC(=O)[C@H](CCCNC(=N)N)NC(=O)[C@@H](N)CO)C(=O)N[C@@H](CS)C(=O)N[C@@H](CC(C)C)C(=O)N[C@H](C(=O)N[C@@H](CO)C(=O)N[C@H](C(=O)N[C@H](C(=O)N[C@@H](CCC(N)=O)C(=O)N[C@@H](CC(C)C)C(=O)N[C@H](C(=O)O)C(C)C)C(C)C)[C@@H](C)O)[C@@H](C)O")
0.3500

---

target.or.system: DRB1*1501 (DR2w2β1) (Homo sapiens, UniProt P01903+P01911)
method.summary: HLA class II peptide binding assay, purified HLA
condition.description: Table XIX, DR supermotif peptides; unit not given
Item-by-item account of DR2wB1 binding data
reported.endpoint: DR2wB1 binding data

>>> value("CC[C@H](C)[C@H](NC(=O)CNC(=O)[C@H](Cc1ccccc1)NC(=O)[C@@H](NC(=O)[C@@H](NC(=O)CNC(=O)[C@H](CC(C)C)NC(=O)[C@@H](N)C(C)C)C(C)C)C(C)C)C(=O)N[C@@H](CC(C)C)C(=O)N[C@H](C(=O)N[C@@H](CCCCN)C(=O)N[C@@H](CCCNC(=N)N)C(=O)N[C@@H](CCCNC(=N)N)C(=O)N[C@@H](CCC(N)=O)C(=O)N[C@@H](CCC(N)=O)C(=O)O)[C@@H](C)CC")
0.0110
>>> value("CC(C)C[C@H](NC(=O)[C@H](CO)NC(=O)[C@H](C)NC(=O)[C@H](CC(N)=O)NC(=O)[C@@H](NC(=O)[C@@H]1CCCN1C(=O)[C@H](CC(C)C)NC(=O)[C@H](Cc1ccc(O)cc1)NC(=O)[C@@H](NC(=O)[C@@H](N)CC(C)C)[C@@H](C)O)[C@@H](C)O)C(=O)N[C@@H](CO)C(=O)N[C@@H](Cc1ccccc1)C(=O)N[C@@H](CC(C)C)C(=O)N[C@@H](CCC(N)=O)C(=O)N[C@@H](CC(=O)O)C(=O)O")
0.0100
>>> value("CC[C@H](C)[C@H](NC(=O)[C@H](CCSC)NC(=O)[C@H](Cc1ccc(O)cc1)NC(=O)[C@@H](NC(=O)[C@H](CC(=O)O)NC(=O)[C@@H](NC(=O)[C@@H](NC(=O)[C@H](CS)NC(=O)[C@@H](NC(=O)[C@@H]1CCCN1C(=O)[C@@H]1CCCN1C(=O)[C@@H](N)CCC(N)=O)[C@@H](C)CC)[C@@H](C)O)[C@@H](C)CC)C(C)C)C(=O)N[C@@H](CCSC)C(=O)N[C@H](C(=O)N[C@@H](CCCCN)C(=O)O)C(C)C")
0.0540
